B1: Hairpin Ribozyme (parent)
chain: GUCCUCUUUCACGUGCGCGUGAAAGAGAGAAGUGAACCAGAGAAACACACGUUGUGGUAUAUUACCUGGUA

- Variants of: B1
- Experiment Summary: self-cleavage, relative activity (ratio to wild type); higher = more cleavage; co-transcriptional
The following variants are listed with their measured self-cleavage values.
Test Readout: self-cleavage

- Variant Designation: "G51U G69A"
  Test Result: 0.457
- Variant Designation: "C16G U33C"
  Test Result: 0.188
- Variant Designation: "A24C A71G"
  Test Result: 0.99
- Variant Designation: "A26G G32A"
  Test Result: 0.103
- Variant Designation: "A30U U33A"
  Test Result: 0.0677
- Variant Designation: "G29A G42U"
  Test Result: 0.197
- Variant Designation: "A44C C46U"
  Test Result: 0.238
- Variant Designation: "C4A C48G"
  Test Result: 0.207
- Variant Designation: "U52A U63C"
  Test Result: 0.32
- Variant Designation: "G17A G29C"
  Test Result: 0.169
- Variant Designation: "G29C U70C"
  Test Result: 0.133
- Variant Designation: "G56A U63A"
  Test Result: 0.133
- Variant Designation: "C16G G17U"
  Test Result: 1.08
- Variant Designation: "C6G U58G"
  Test Result: 0.498
- Variant Designation: "U7C A30C"
  Test Result: 0.121
- Variant Designation: "C16G A24G"
  Test Result: 0.568
- Variant Designation: "A36G C38A"
  Test Result: 0.146
- Variant Designation: "U2G G34U"
  Test Result: 0.984
- Variant Designation: "U9A C10A"
  Test Result: 0.743
- Variant Designation: "A22U A24G"
  Test Result: 0.76
- Variant Designation: "U60A C65A"
  Test Result: 0.807
- Variant Designation: "C4U U63A"
  Test Result: 0.157

Attribution: the RNAGym collection of RNA variant scans (doi:10.7554/elife.80360)
